- Target or system: PKM2 (Homo sapiens, UniProt P14618)
- Sequence (P14618 whole entry): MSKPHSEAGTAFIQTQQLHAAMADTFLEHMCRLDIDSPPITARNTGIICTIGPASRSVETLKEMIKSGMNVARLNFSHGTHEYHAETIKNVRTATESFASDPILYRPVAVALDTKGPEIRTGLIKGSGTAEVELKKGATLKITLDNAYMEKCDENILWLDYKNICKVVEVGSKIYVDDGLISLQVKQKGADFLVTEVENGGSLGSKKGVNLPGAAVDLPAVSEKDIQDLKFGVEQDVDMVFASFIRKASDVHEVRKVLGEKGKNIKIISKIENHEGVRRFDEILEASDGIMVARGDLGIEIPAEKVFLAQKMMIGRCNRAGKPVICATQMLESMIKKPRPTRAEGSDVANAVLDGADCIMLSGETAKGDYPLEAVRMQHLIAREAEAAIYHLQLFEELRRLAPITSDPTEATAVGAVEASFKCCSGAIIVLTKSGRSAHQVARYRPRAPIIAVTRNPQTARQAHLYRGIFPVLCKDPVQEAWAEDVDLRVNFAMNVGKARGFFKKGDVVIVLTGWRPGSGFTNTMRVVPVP
- Assay text: PKM2 Assay (activation; LDH-coupled, NADH absorbance at 340 nm)
- Format: biochemical
- Condition parameters: PKM2 50 ng/well, ADP 0.7 mM, PEP 0.15 mM, no FBP in Reaction Mix
Endpoint: AC50

// known answers, use as guide
CCn1c(=O)oc2cc(Cl)c(S(=O)(=O)Nc3ccc(F)cc3)cc21 : 10 to 50 µM
Cn1c(=O)sc2cc(S(=O)(=O)N3CCN(S(=O)(=O)c4c(F)cccc4F)CC3)ccc21 : < 1 µM
Cc1cc2oc(=O)n(C)c2cc1S(=O)(=O)N1CCCN(c2ccc(C(F)(F)F)cn2)CC1 : 1 to 10 µM
COc1cccc(S(=O)(=O)Nc2cc3c(cc2C)oc(=O)n3C)c1 : 10 to 50 µM
Cc1cc2sc(=O)sc2cc1S(=O)(=O)NC1CCCCC1 : 10 to 50 µM
CCn1c(=O)oc2cc(S(=O)(=O)Nc3ccccc3Cl)ccc21 : 1 to 10 µM

Entry under review: Cc1cc2oc(=O)n(C)c2cc1S(=O)(=O)Nc1c(F)cccc1F . Reported AC50? > 100 µM

Entry under review: Cc1cc2c(cc1S(=O)(=O)Nc1ccc(F)cc1)oc(=O)n2C . Reported AC50? 1 to 10 µM

Entry under review: COc1ccc(C)cc1S(=O)(=O)Nc1cc2[nH]c(=O)oc2cc1C . Reported AC50? 10 to 50 µM

Entry under review: Cn1c(=O)oc2cc(S(=O)(=O)Nc3cccc4ncccc34)ccc21 . Reported AC50? 10 to 50 µM

Entry under review: Cc1cc(S(=O)(=O)Nc2ccc(F)c(Cl)c2)cc2oc(=O)n(C)c12 . Reported AC50? < 1 µM

Entry under review: Cc1cc2c(cc1S(=O)(=O)N1CCN(S(=O)(=O)c3c(F)cccc3F)CC1)oc(=O)n2C . Reported AC50? 1 to 10 µM

Entry under review: Cc1cc(NS(=O)(=O)c2cc(C)c3c(c2)oc(=O)n3C)ccc1F . Reported AC50? < 1 µM

Entry under review: COc1ccc(C)cc1S(=O)(=O)Nc1cc2c(cc1Cl)oc(=O)n2C . Reported AC50? 1 to 10 µM

Entry under review: O=c1oc2cc(S(=O)(=O)Nc3ccc(Cl)cc3)ccc2n1Cc1ccccc1 . Reported AC50? 1 to 10 µM

Entry under review: Cn1c(=O)oc2cc(F)c(NS(=O)(=O)c3c(F)cccc3F)cc21 . Reported AC50? > 100 µM

Entry under review: Cc1cc2oc(=O)n(C)c2cc1S(=O)(=O)Nc1ccc(Cl)cc1 . Reported AC50? < 1 µM

Entry under review: CCn1c(=O)sc2ccc(NS(=O)(=O)c3cccs3)cc21 . Reported AC50? 10 to 50 µM

Entry under review: Cc1cc2oc(=O)n(C)c2cc1S(=O)(=O)Nc1ccc2c(c1)OCO2 . Reported AC50? < 1 µM

Entry under review: Cn1c(=O)oc2cc(S(=O)(=O)N3CCN(S(=O)(=O)c4ccc5c(c4)OCCO5)CC3)ccc21 . Reported AC50? < 1 µM

Entry under review: Cn1c(=O)sc2cc(S(=O)(=O)Nc3ccc(F)c(Cl)c3)ccc21 . Reported AC50? < 1 µM

---

- Target or system: PKM2 (Homo sapiens)
- Assay text: PKM2 Assay (activation; LDH-coupled, NADH absorbance at 340 nm)
- Type: biochemical
- Condition parameters: PKM2 50 ng/well, ADP 0.7 mM, PEP 0.15 mM, no FBP in Reaction Mix
Endpoint: AC50

Cc1cc(C)cc(NS(=O)(=O)c2cc3c(cc2Cl)oc(=O)n3C)c1 : < 1 µM
Cn1c(=O)oc2cc(S(=O)(=O)Nc3cccc4ccccc34)ccc21 : 1 to 10 µM
Cc1cc2c(cc1S(=O)(=O)N1CCN(S(=O)(=O)c3ccc4c(c3)OCCO4)CC1)oc(=O)n2C : < 1 µM
Cc1cc2oc(=O)n(C)c2cc1NS(=O)(=O)c1cc(Cl)ccc1Cl : 10 to 50 µM
COCCn1c(=O)oc2cc(S(=O)(=O)Nc3cccc(Cl)c3)ccc21 : < 1 µM
Cc1cc2oc(=O)n(C)c2cc1S(=O)(=O)Nc1ccc(Cl)c(Cl)c1 : 1 to 10 µM
Cc1cc2oc(=O)n(C)c2cc1NS(=O)(=O)c1ccc(F)cc1 : 10 to 50 µM
Cc1cc(C)cc(NS(=O)(=O)c2cc3oc(=O)n(C)c3cc2F)c1 : < 1 µM
COc1ccc(C)cc1S(=O)(=O)Nc1ccc2oc(=O)[nH]c2c1 : 10 to 50 µM

For the next question, use this molecule.
Entry under review: Cn1c(=O)oc2cc(S(=O)(=O)Nc3ccc(F)cc3)ccc21 . Reported AC50? 1 to 10 µM

---

- Target or system: PKM2 (Homo sapiens)
- Assay text: PKM2 Assay (activation; LDH-coupled, NADH absorbance at 340 nm)
- Format: biochemical
- Condition parameters: PKM2 50 ng/well, ADP 0.7 mM, PEP 0.15 mM, no FBP in Reaction Mix
Reported AC50 by item:

Cc1cc(NS(=O)(=O)c2cc(CN(C)C)c3c(c2)oc(=O)n3C)ccc1F : > 100 µM
Cn1c(=O)oc2cc(F)c(S(=O)(=O)Nc3ccc(Cl)cc3)cc21 : 1 to 10 µM

Entry under review: Cc1cc2oc(=O)n(C)c2cc1S(=O)(=O)N1CCN(c2ccc(C(F)(F)F)cn2)CC1 . Reported AC50? 1 to 10 µM

Entry under review: Cc1cc(NS(=O)(=O)c2cc(CN3CCOCC3)c3c(c2)oc(=O)n3C)ccc1F . Reported AC50? 1 to 10 µM

Entry under review: Cn1c(=O)oc2cc(S(=O)(=O)Nc3ccc(F)c(C(F)(F)F)c3)ccc21 . Reported AC50? < 1 µM

Entry under review: COc1ccc(Cl)cc1S(=O)(=O)Nc1cc2c(cc1C)oc(=O)n2C [drawing 47] . Reported AC50? < 1 µM

Entry under review: Cn1c(=O)sc2cc(S(=O)(=O)N3CCCN(S(=O)(=O)c4c(F)cccc4F)CC3)ccc21 . Reported AC50? 1 to 10 µM

Entry under review: COCCn1c(=O)oc2cc(S(=O)(=O)Nc3ccc(F)c(C)c3)ccc21 . Reported AC50? < 1 µM

Entry under review: O=c1[nH]c2cc(NS(=O)(=O)c3cccs3)ccc2o1 . Reported AC50? 10 to 50 µM

Entry under review: COc1ccc(Cl)cc1S(=O)(=O)Nc1ccc(NS(=O)(=O)c2cc3c(cc2C)oc(=O)n3C)cc1 . Reported AC50? > 100 µM

Entry under review: Cn1c(=O)oc2cc(Cl)c(S(=O)(=O)Nc3ccccc3F)cc21 . Reported AC50? 1 to 10 µM

Entry under review: Cn1c(=O)sc2cc(S(=O)(=O)Nc3cccc4ccccc34)ccc21 . Reported AC50? 1 to 10 µM

Entry under review: COc1ccc(Cl)cc1S(=O)(=O)Nc1cc2[nH]c(=O)oc2cc1C . Reported AC50? 1 to 10 µM

Entry under review: Cn1c(=O)oc2cc(Cl)c(S(=O)(=O)Nc3ccc(F)cc3)cc21 . Reported AC50? 1 to 10 µM

Entry under review: Cn1c(=O)sc2cc(NS(=O)(=O)c3cccs3)ccc21 . Reported AC50? 10 to 50 µM

Entry under review: COc1ccc(Cl)cc1S(=O)(=O)N1CCN(S(=O)(=O)c2ccc3c(c2)sc(=O)n3C)CC1 . Reported AC50? 1 to 10 µM

---

- Target or system: UniProtKB P14618
- Assay text: PKM2 Assay (activation; LDH-coupled, NADH absorbance at 340 nm)
- Format: biochemical
- Condition parameters: PKM2 50 ng/well, ADP 0.7 mM, PEP 0.15 mM, no FBP in Reaction Mix
Endpoint: AC50

// known answers, use as guide
CCn1c(=O)sc2ccc(NS(=O)(=O)c3cc(Cl)ccc3OC)cc21 : 1 to 10 µM
O=c1sc2ccc(S(=O)(=O)Nc3ccc(F)cc3)cc2s1 : 10 to 50 µM
Cc1cc(C)cc(NS(=O)(=O)c2ccc3c(c2)oc(=O)n3C)c1 : < 1 µM
CCn1c(=O)sc2ccc(NS(=O)(=O)c3c(F)cccc3F)cc21 : 1 to 10 µM
CN(Cc1ccccc1)S(=O)(=O)c1ccc2c(c1)oc(=O)n2C : 1 to 10 µM

Entry under review: COc1ccc(Cl)cc1S(=O)(=O)N1CCCN(S(=O)(=O)c2ccc3c(c2)sc(=O)n3C)CC1 . Reported AC50? < 1 µM

Entry under review: Cn1c(=O)oc2cc(S(=O)(=O)Nc3ccccc3Cl)ccc21 . Reported AC50? 1 to 10 µM

Entry under review: CCn1c(=O)oc2cc(C)c(S(=O)(=O)Nc3ccccc3Cl)cc21 . Reported AC50? 10 to 50 µM

Entry under review: Cn1c(=O)oc2cc(S(=O)(=O)Nc3ccc(Cl)c(F)c3)ccc21 . Reported AC50? 1 to 10 µM

Entry under review: Cn1c(=O)sc2cc(S(=O)(=O)Nc3ccc(F)cc3)ccc21 . Reported AC50? < 1 µM

Entry under review: Cc1cc2sc(=O)sc2cc1S(=O)(=O)Nc1ccccc1 . Reported AC50? < 1 µM

Entry under review: Cn1c(=O)oc2cc(S(=O)(=O)Nc3ccccn3)ccc21 . Reported AC50? 10 to 50 µM

Entry under review: Cc1cc2sc(=O)sc2cc1S(=O)(=O)Nc1ncc(C(F)(F)F)cc1Cl . Reported AC50? 1 to 10 µM

Values were extracted from patent US8501953B2.
